Data origin: patent US20040106540A1

# Assay Target: active human Akt1 (Homo sapiens, UniProt P31749)
# Construct: purchased Upstate Biotechnology 14-276
# Sequence (P31749 whole entry): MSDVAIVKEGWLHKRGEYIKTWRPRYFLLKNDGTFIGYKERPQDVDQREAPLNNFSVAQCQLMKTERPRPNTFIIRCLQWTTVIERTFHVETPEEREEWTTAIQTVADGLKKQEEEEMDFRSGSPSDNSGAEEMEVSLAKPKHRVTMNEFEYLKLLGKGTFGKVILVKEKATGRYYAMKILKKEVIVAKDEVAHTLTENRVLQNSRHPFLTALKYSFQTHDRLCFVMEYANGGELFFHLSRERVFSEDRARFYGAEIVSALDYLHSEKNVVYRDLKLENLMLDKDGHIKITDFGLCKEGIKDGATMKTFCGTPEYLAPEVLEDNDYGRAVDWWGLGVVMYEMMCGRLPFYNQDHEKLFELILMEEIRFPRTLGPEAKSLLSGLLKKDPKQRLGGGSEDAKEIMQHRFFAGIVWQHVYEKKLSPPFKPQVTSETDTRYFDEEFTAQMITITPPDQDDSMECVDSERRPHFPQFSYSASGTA
# Test Summary: Akt kinase assay, phosphorylation of GSK3-derived peptide
# Type: biochemical
# Test Settings: GSK3 peptide substrate; read-out: GSK3 Peptide Substrate IC50 (μM) Akt-1
Each entry belongs to exactly one class, chosen by where its IC50 falls: lower segment (below 0.9 µM), middle segment (0.9 µM to below 6 µM), upper segment (6 µM or more)

{"Molecule": "CN(C)CC(C)(C)CNc1nn2c(-c3ccccc3)nnc2c2ccccc12 [Compound 6]", "Assigned Class": "upper segment"}
{"Molecule": "CN(C)CC(C)(C)CNc1nn2c(-c3ccccc3)nnc2cc1C1CCC1 [Compound 1]", "Assigned Class": "middle segment"}
{"Molecule": "CN(C)CC(C)(C)CNc1nn2c(-c3cc(F)cc(F)c3)nnc2cc1C1CCC1 [Compound 2]", "Assigned Class": "lower segment"}
{"Molecule": "COc1ccc(-c2nnc3c4ccccc4c(NCC(C)(C)CN(C)C)nn23)cc1 [Compound 7]", "Assigned Class": "middle segment"}
{"Molecule": "OCCOc1nn2c(-c3ccccc3)nnc2cc1-c1ccccc1 [Compound 8]", "Assigned Class": "upper segment"}
{"Molecule": "CN(C)CC(C)(C)CNc1nn2c(-c3cccc(F)c3)nnc2cc1C1CCC1 [Compound 5]", "Assigned Class": "lower segment"}
{"Molecule": "CN(C)CC(C)(C)CNc1nn2c(-c3ccc(F)cc3)nnc2cc1C1CCC1 [Compound 4]", "Assigned Class": "middle segment"}
